conditions: in DMF, 293.15 K
attribute-measured: solubility (mole fraction)

Nc1ncnc2c1ncn2[C@@H]1O[C@H](CO)[C@@H](O)[C@H]1O 0.00687

###

conditions: in water, 313.15 K
attribute-measured: solubility (mole fraction)

Nc1ncnc2c1ncn2[C@@H]1O[C@H](CO)[C@@H](O)[C@H]1O 0.000731

###

settings: in water, 323.15 K
attribute-measured: solubility (mole fraction)

Nc1ncnc2c1ncn2[C@@H]1O[C@H](CO)[C@@H](O)[C@H]1O 0.00105

###

conditions: in DMF, 308.15 K
attribute-measured: solubility (mole fraction)

Nc1ncnc2c1ncn2[C@@H]1O[C@H](CO)[C@@H](O)[C@H]1O 0.00993
